molecular target: human plasma DPP-IV (Homo sapiens, UniProt P27487); assay: DPP-IV activity in human plasma (modified Kubota assay); conditions: substrate H-Glycine-Proline-AMC, 8-point dose-response curves
Sequence (P27487 39-766 limits assumed): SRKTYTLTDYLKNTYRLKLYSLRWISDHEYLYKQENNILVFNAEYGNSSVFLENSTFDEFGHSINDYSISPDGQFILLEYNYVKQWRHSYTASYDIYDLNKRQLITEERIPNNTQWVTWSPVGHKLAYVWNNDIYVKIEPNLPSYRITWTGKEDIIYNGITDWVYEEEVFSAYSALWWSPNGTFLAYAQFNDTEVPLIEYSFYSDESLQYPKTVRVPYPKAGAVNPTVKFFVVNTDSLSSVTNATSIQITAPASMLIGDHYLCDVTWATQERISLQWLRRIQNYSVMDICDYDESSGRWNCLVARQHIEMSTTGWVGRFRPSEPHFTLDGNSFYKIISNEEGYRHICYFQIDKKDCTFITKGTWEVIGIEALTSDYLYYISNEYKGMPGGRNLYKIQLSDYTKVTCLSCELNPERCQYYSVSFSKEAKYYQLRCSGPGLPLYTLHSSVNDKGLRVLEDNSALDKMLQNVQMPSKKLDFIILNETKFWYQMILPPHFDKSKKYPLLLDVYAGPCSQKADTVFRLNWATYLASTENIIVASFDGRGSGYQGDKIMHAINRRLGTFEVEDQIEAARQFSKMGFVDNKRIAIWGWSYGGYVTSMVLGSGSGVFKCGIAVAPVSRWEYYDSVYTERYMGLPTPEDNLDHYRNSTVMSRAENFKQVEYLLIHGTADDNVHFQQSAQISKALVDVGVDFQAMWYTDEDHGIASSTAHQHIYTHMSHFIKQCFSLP
Counter-ions that a name gives are not always drawn.
measured.parameter: IC50 (nM)

Worked cases, IC50 given:
molecule="N#Cc1ccc(NC2CCC(NCC(=O)N3CCC[C@H]3C#N)CC2)cc1 (stereo partly drawn) [Ex. 2W, dihydrochloride]" measured_parameter=IC50 result_units=nM data_value=19
molecule="N#C[C@@H]1CCCN1C(=O)CNC1CCN(S(=O)(=O)c2ccc(Cl)cc2)CC1 [Ex. 3, monohydrochloride]" measured_parameter=IC50 result_units=nM data_value=204
molecule="N#C[C@@H]1CCCN1C(=O)CNC1CCC(NC(=O)c2ccccc2)CC1 (stereo partly drawn) [Ex. 2N]" measured_parameter=IC50 result_units=nM data_value=10
molecule="N#C[C@@H]1CCCN1C(=O)CNC1CCC(Oc2ccc(C(F)(F)F)cc2)CC1 (stereo partly drawn) [Ex. 2EE, monohydrochloride]" measured_parameter=IC50 result_units=nM data_value=150
molecule="N#C[C@@H]1CCCN1C(=O)CNC1CCC(NS(=O)(=O)c2ccccc2)CC1 (stereo partly drawn) [Ex. 2M, monohydrochloride]" measured_parameter=IC50 result_units=nM data_value=10

[1] CC(C)(CNc1ccc(Cl)cn1)NCC(=O)N1CCC[C@H]1C#N [Ex. 1, monohydrochloride]
[2] N#C[C@@H]1CCCN1C(=O)CNC1CCC(Nc2ccnc(Cl)n2)CC1 (stereo partly drawn) [Ex. 2S, dihydrochloride]
Task: Which one would you say has the larger IC50 value: 1 , or 2 ? // respond with label for picked entry
Result: 1

[a] N#C[C@@H]1CCCN1C(=O)CNC1CCC(Nc2nc3cc(Cl)ccc3s2)CC1 (stereo partly drawn) [Ex. 2Y, dihydrochloride]
[b] CC(C)(C)C(=O)NC1CCC(NCC(=O)N2CCC[C@H]2C#N)CC1 (stereo partly drawn) [Ex. 2U, monohydrochloride]
Task: // pick min by IC50: a , b Give the label of your selection.
Result: b
(b: 27 nM, a: 124 nM)
